Taken from ChEMBL document CHEMBL1201861.

Here the recorded pIC50 is given for each entry.
test system: D-336MG; test: cells; assay type: functional, cell-based, Homo sapiens; settings: Homo sapiens, D-336MG
Description: SANGER: Inhibition of human D-336MG cell growth in a cell viability assay.
pIC50: −log10 of the molar value.
parameter: pIC50

INSERT INTO assay_data (compound, parameter, val) VALUES
  ('CC(=O)O[C@H]1C(=O)[C@@]2(C)[C@H]([C@H](OC(=O)c3ccccc3)[C@]3(O)C[C@H](OC(=O)[C@H](O)[C@@H](NC(=O)c4ccccc4)c4ccccc4)C(C)=C1C3(C)C)[C@]1(OC(C)=O)CO[C@@H]1C[C@@H]2O [PACLITAXEL]', 'pIC50', '< 6.99'),
  ('CCN(CC)CCCCNc1ncc2cc(-c3cc(OC)cc(OC)c3)c(NC(=O)NC(C)(C)C)nc2n1 [PD-173074]', 'pIC50', '< 5.70'),
  ('Cc1cn(-c2cc(NC(=O)c3ccc(C)c(Nc4nccc(-c5cccnc5)n4)c3)cc(C(F)(F)F)c2)cn1 [NILOTINIB]', 'pIC50', '< 5.70'),
  ('CC(C)CCN1c2nc(Nc3cc(F)c(O)c(F)c3)ncc2N(C)C(=O)C1C (stereo not given)', 'pIC50', '< 5.30'),
  ('COc1cc2ncnc(Nc3ccc(F)c(Cl)c3)c2cc1OCCCN1CCOCC1 [GEFITINIB]', 'pIC50', '< 6.30');
